Tested on: Candida albicans
Settings: 32 ug/mL
Description: Antifungal activity against Candida albicans ATCC 90028 (CO-ADD:FG_001); MIC in YNB media using NBS plates, by OD630
Entries with a potency or affinity are not part of this list.
quantity kind: Inhibition (%)
Numeric answer only, unit % assumed.

Example cases with answers are listed next.
                           molecular_string  endpoint_value
0  Cn1c([N+](=O)[O-])cnc1C(=O)NCc1ccc(F)cc1            7.55
1        Cn1c([N+](=O)[O-])cnc1C(=O)N1CCCC1            7.94
2  Cn1c([N+](=O)[O-])cnc1C(=O)NCc1ccccn1.O=C(O)C(F)(F)F            4.77
3         Cn1c([N+](=O)[O-])cnc1C(=O)NC1CC1            5.96
4  Cc1ccc(CCNC(=O)c2ncc([N+](=O)[O-])n2C)cc1            12.1

Input: Given the compound `Cn1c([N+](=O)[O-])cnc1C(=O)NCc1ccc(OC(F)(F)F)cc1` , write its reported Inhibition.
Output: 21.3
